Quick note: these are Ki numbers for system: soluble human BACE-1 catalytic domain (Homo sapiens (Human), UniProt P56817)
Sequence (P56817 75-416): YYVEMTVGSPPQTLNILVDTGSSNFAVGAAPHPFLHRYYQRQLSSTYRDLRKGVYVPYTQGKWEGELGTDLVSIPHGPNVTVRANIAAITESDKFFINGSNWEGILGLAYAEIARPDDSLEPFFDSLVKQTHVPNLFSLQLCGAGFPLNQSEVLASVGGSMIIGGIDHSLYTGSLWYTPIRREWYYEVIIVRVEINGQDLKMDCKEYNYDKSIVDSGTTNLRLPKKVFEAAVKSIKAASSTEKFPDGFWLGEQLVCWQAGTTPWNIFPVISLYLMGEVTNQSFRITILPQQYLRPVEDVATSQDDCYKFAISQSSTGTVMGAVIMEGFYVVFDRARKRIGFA
# number only, unit nM dropped from output

Query Ki on soluble human BACE-1 catalytic domain (Homo sapiens (Human), UniProt P56817) for `C[C@@]1(c2cc(Nc3nccc4cc(C#N)cnc34)ncc2F)CS(=O)(=O)[C@@](C)(C2CC2)C(N)=N1`
3.8

How about `C[C@@]1(c2nc(Nc3nccc4cc(C#N)cnc34)ccc2F)CS(=O)(=O)[C@@](CF)(C2CC2)C(N)=N1` ?
15

How about `C[C@@]1(c2cc(Nc3nccc4cc(O)cnc34)ncc2F)CS(=O)(=O)[C@@](C)(C2CC2)C(N)=N1` ?
0.89

How about `COc1cnc2c(Nc3ccc(F)c([C@]4(C)CS(=O)(=O)[C@@](C)(C5CC5)C(N)=N4)c3)nccc2c1` ?
9.3

How about `C[C@@]1(c2cc(Nc3ncnc4cc(Br)cnc34)ccc2F)CS(=O)(=O)[C@@](C)(C2CC2)C(N)=N1` ?
1.8

How about `CC#CCOc1cnc2c(Nc3cnc(F)c([C@]4(C)CS(=O)(=O)[C@@](CF)(C5CC5)C(N)=N4)c3)nccc2n1` ?
0.65

How about `COc1cnc2c(Nc3ccc(F)c([C@]4(C)CS(=O)(=O)[C@@](CF)(C5CC5)C(N)=N4)c3)nccc2c1` ?
7.1
